test system: KM12; test: NCI tumour cell line growth inhibition, 48 h
Active and inactive are the calls of the source. Rule as the data show it: active = GI50 up to about 1.1 µM and inactive = higher.
Outcomes: yes (1) for active, no (0) for inactive

1. NC(=O)c1nnsc1N/N=C/c1ccc([N+](=O)[O-])cc1 | no (0)
2. COc1ccc(C2CC(c3ccc4ccccc4c3O)=NN2C(C)=O)cc1OC (centres undefined) | no (0)
3. Cc1nc(-[n+]2nc(-c3ccncc3)nn2-c2ccccc2)sc1C | no (0)
4. CCCCCCCCCCCCCCCCCC(=O)NCC(COP(=O)([O-])OCC[N+](C)(C)C)OC (centres undefined) | yes (1)
5. CC(CO)CCNc1ncnc2c1ncn2CCC#N (centres undefined) | no (0)
6. CC(=O)NNc1nc(C)c(C(/C=C/c2ccc(Cl)cc2)=N/NC(=O)C[N+](C)(C)C)s1 | no (0)
7. COc1nc(NC2OC(COC(C)=O)C(OC(C)=O)C(OC(C)=O)C2OC(C)=O)c(/N=C/C=N/c2c(NC3OC(COC(C)=O)C(OC(C)=O)C(OC(C)=O)C3OC(C)=O)nc(OC)n(C)c2=O)c(=O)n1C (centres undefined) | no (0)
8. Nc1ccc(C(=O)N/C(=C\c2ccc3c(c2)OCO3)c2nc3ccc4c(c3[nH]2)C(=O)c2ccccc2C4=O)cc1 | no (0)
9. O=C1N[C@@H](c2c[nH]c3ccc(Br)cc23)C(=O)N[C@H]1c1c[nH]c2ccc(Br)cc12 | no (0)

* * *

test system: A549; test: NCI tumour cell line growth inhibition, 48 h
The source made the active and inactive calls. Rule as the data show it: active = GI50 up to about 1.1 µM and inactive = higher.
Outcome codes: 1 (active), 0 (inactive)

1. NC(CS)C(=O)NCCNc1ccc(NCCNC(=O)C(N)CS)c2c1C(=O)c1c(O)ccc(O)c1C2=O (configuration not stated) | 1
2. COc1cc(C(C)c2cc3c(cc2OCCNC(=O)COc2cc4c(cc2C(C)c2cc(OC)c(OC)c(OC)c2)OCO4)OCO3)cc(OC)c1OC (configuration not stated) | 0
3. COc1ccc(C2CC(c3ccc4ccccc4c3O)=NN2C(C)=O)cc1OC (configuration not stated) | 0
4. O=C(N/C(=C\c1ccc(F)cc1)c1nc2ccccc2[nH]1)c1ccccc1 | 0
5. CCCCCCCC/C=C\CCCCCCC/C=C1\C[C@](/C=C/C(=O)OC)(CO)OC1=O | 0
6. O=C1C[C@H]2[C@@H](O1)[C@@H](O)CN1C(=O)c3ccccc3[C@H]21 | 0
7. [O-][S+]1Nc2cccc(C(F)(F)F)c2S1 (configuration not stated) | 0

* * *

test system: EKVX; experiment: NCI tumour cell line growth inhibition, 48 h
Activity calls are given as the source filed them. Cut-off read from the data, not from the text of the source: active = GI50 up to about 1.1 µM and inactive = higher.
Recorded endpoint: GI50

1) CCCCc1ccc(Nc2nc3c(ncn3COCCBr)c(=O)[nH]2)cc1 | > 100 µM (inactive)
2) CC(C)(C)OC(=O)N1Cc2cc(O)ccc2C[C@H]1C(=O)O | > 100 µM (inactive)
3) C=C(C)C1CCC2=CC(CC3(C)OC3C3=CC(C(=O)OC)=C(C1)O3)OC2=O (stereo not given) | > 100 µM (inactive)
4) O=C(O)c1ccccn1 [2-PICOLINIC ACID] | > 100 µM (inactive)
5) Cc1cc(C)c2c(=O)n(CN3CCC(C#N)(c4ccccc4)CC3)sc2n1 | 52.7 µM (inactive)

* * *

tested on: SF-539; test: NCI tumour cell line growth inhibition, 48 h
Activity calls are given as the source filed them. Rule as the data show it: active = GI50 up to about 1.1 µM and inactive = higher.
Outcome codes: active, inactive

1. CC(=O)N(C)c1ccc2c(ccc[n+]2[O-])c1[N+](=O)[O-] | inactive
2. COc1ccc2nc3cc(Cl)ccc3c(NCCCN3CCN(CCCNc4ccc5nnn6c7ccccc7c(=O)c4c56)CC3)c2c1 | active
3. Cc1cc(N(CCC#N)S(=O)(=O)c2ccccc2)ccc1C=O | inactive
4. CN(C)CCNC(=O)c1cccc2nc3c(Cl)cccc3nc12 | inactive
5. Cc1ccc(/N=N/NCCCCN/N=N/c2ccc(C)cc2)cc1 | inactive
6. O=C(c1cccs1)N(C(=O)N1CCCCC1)c1ccccc1 | inactive

* * *

tested on: CAKI-1; test: NCI tumour cell line growth inhibition, 48 h
Active and inactive are the calls of the source. Rule as the data show it: active = GI50 up to about 1.1 µM and inactive = higher. Peptide text beside a SMILES is read from it. * marks the point of attachment. Boc = CC(C)(C)OC(=O)*
Outcomes: true (1) for active, false (0) for inactive

1) CCCCOC(=O)CN1C(=O)c2ccccc2C1=O | false (0)
2) COC(=O)c1ccc(C)cc1CC1Cc2cc(C)ccc2C1=O (stereo unspecified) | false (0)
3) COC(c1ccc(C(C)(C)C)cc1)(c1ccc(C(C)(C)C)cc1)c1cc(C(O)(c2cc(C(OC)(c3ccc(C(C)(C)C)cc3)c3ccc(C(C)(C)C)cc3)c(C)cc2C)c2cc(C(OC)(c3ccc(C(C)(C)C)cc3)c3ccc(C(C)(C)C)cc3)c(C)cc2C)c(C)cc1C | false (0)
4) COc1cc(C(=O)C/C(CCC(=O)Nc2ccccc2[N+](=O)[O-])=N\NC(N)=O)ccc1O | false (0)
5) Nc1nc(N)c(-c2ccccc2)c(C(=O)Nc2nccs2)n1 | false (0)
6) CC(C)(C)c1cc(O)c2c(c1O)C(=O)CCC2 | false (0)
7) Cn1c(-c2ccc(C=O)o2)ccc1-c1ccc(C=O)o1 | false (0)
8) CC(C)OC(=O)c1cccnc1/C=N/O | false (0)
9) CC1(C)CC2=NO[Se]3=C2C(=NO3)C1 | false (0)
10) CC(=O)Nc1ccc2nc(N)n[n+]([O-])c2c1 | false (0)
11) COc1cc(C2c3cc4c(cc3C(O)C3CCC(=O)N23)OCO4)cc(OC)c1OC (stereo unspecified) | false (0)
12) COC(=O)c1nsc(OC)c1Cl | false (0)
13) COC(=O)C(Cc1c[nH]c2ccccc12)NC(=O)C(Cc1c[nH]c2ccccc12)NC(=O)C(Cc1c[nH]c2ccccc12)NC(=O)C(Cc1c[nH]c2ccccc12)NC(=O)C(Cc1c[nH]c2ccccc12)NC(=O)OC(C)(C)C (stereo unspecified) (Boc-WWWWW-OMe; configuration not given here) | false (0)
14) COc1c2ccccc2c(OC)c2nc(C)ccc12 | false (0)
15) O=C(CC(=O)N(C(=O)c1ccccc1)c1ccc(Cl)cc1)N/N=C\c1cc(/N=N/c2ccccc2Cl)ccc1O | false (0)
16) COc1cc2c(cc1OC)CC(N=[N+]=[N-])c1cc(OC)c(OC)cc1/C=C\2 (stereo unspecified) | false (0)
17) Cc1ccc2nc(Cl)c(/C=N/N3C(=O)/C(=C/c4ccc(N(C)C)cc4)N=C3c3ccccc3)cc2c1 | false (0)
18) O=C(NO)c1ccc(C(=O)NO)cc1 | false (0)
19) CCC(=O)OC[n+]1ccc2c(C)c3[nH]c4ccc(OC)cc4c3c(C)c2c1 | true (1)
20) O=S(=O)(c1ccccc1)n1c2cc3cccnc3nc2c2cccnc21 | false (0)
21) Cc1c(/N=N/c2ccc(Cl)cc2)c(-c2ccccc2)n(C2OC(CO)C(O)C(O)C2O)c(=S)c1C#N (stereo unspecified) | false (0)
22) O=C(NN1C(=O)CS(=O)(=O)C1c1cccc(F)c1)c1ccncc1 (stereo unspecified) | false (0)
23) COc1ccc2c(c1)c1nn(CCN(C)C)c3ccc4c(=O)n(CCN(C)C)c(=O)n2c4c13 | true (1)
24) CC(C)(C)NCC(COc1ccc([N+](=O)[O-])cc1)OP(c1ccccc1)c1ccccc1 (stereo unspecified) | false (0)
25) CCOC(=O)N[C@H]1CCc2cc(OC)c(OC)c(OC)c2-c2ccc(SC)c(=O)cc21 | true (1)
26) O=[N+]([O-])c1ccc(C2N3CCCCC3[C@@H]3c4[nH]c5ccccc5c4CCN23)cc1 (stereo partly specified) | false (0)
27) COC(=O)C1=C(C(=O)OC)C2C=CC1C1C(Cl)=C(Cl)C21 (stereo unspecified) | false (0)
28) COc1cc(/C=C/C(=O)c2sc(Nc3ccccc3)nc2C)ccc1O | false (0)
29) CCCCCCCCCCCCCCCCCC(=O)NCC(COP(=O)([O-])OCC[N+](C)(C)C)OC (stereo unspecified) | false (0)
30) Cc1ccc(Nc2nc(C)c(C(/C=C/c3ccc4c(c3)OCO4)=N/Nc3ccc([N+](=O)[O-])cc3[N+](=O)[O-])s2)c([N+](=O)[O-])c1 | false (0)
31) COc1ccc(CNc2ccn(C3OC(CO)C(O)C3O)c(=O)n2)cc1 (stereo unspecified) | false (0)

* * *

system: K562; assay: NCI tumour cell line growth inhibition, 48 h
Activity calls are given as the source filed them. Cut-off read from the data, not from the text of the source: active = GI50 up to about 1.1 µM and inactive = higher.
Classes used: Y for active, N for inactive

1. COc1c(C=O)c2c(c(OC)c1OC)-c1ccc(OC)c(=O)cc1[C@@H](NC(C)=O)CC2 | Y
2. CC1ON2CCCC2[C@H]1C(=O)N1C2CC3CCC2(CS1(=O)=O)C3(C)C (stereo not given in full) | N
3. Nc1ccc(C(=O)N/C(=C\c2ccc3c(c2)OCO3)c2nc3ccc4c(c3[nH]2)C(=O)c2ccccc2C4=O)cc1 | N
4. O=C1CCCCC1CN1CCCCC1 (stereo not given) | N
5. COc1ccc2c(c1)SC1=Nc3sc4cc(OC)ccc4[n+]3CN12 | N
